System: T-47D breast
assay: NCI tumour cell line growth inhibition, 48 h
Can you tell me TGI for the items I'm about to list?
Response body: numeric value in µM, unit text excluded.

Measured TGI of CCOC(=O)c1c(CN2CCNCC2)nc2ccc(Cl)cc2c1-c1ccccc1 : 20.6

Measured TGI of COc1cccc(S(=O)(=O)NC2=NCCN2C(=S)SN2CCn3c2nsc3=S)c1 : 51

Measured TGI of CCOC(=O)c1ccc(N2NC(=O)/C(=C/c3ccc([N+](=O)[O-])o3)C2=O)cc1 : 33.4

Measured TGI of Cn1cnc([N+](=O)[O-])c1S(=O)(=O)Oc1ccc(Cl)cc1 : 6.3

###

System: K-562 leukemia
assay: NCI tumour cell line growth inhibition, 48 h
Can you tell me TGI for the items I'm about to list?

Measured TGI of CCOC(=O)c1c(NC(=S)Nc2ccccc2)sc2c1CCN(C)C2 : > 100 µM

Measured TGI of O=c1[nH]c(-c2ccc(Cl)c(Cl)c2)cn1-c1ccc(Cl)cc1 : 46.9 µM

Measured TGI of CCC1C(NC(=O)OC)C(=O)N1[C@@H](C)c1ccccc1 (stereo partly specified) : > 100 µM

Measured TGI of Clc1cc(Br)ccc1-c1ccc(CNCC2CCNCC2)o1 : 3.46 µM

Measured TGI of O=C1OC(c2ccc(O)cc2)(c2ccc(O)cc2)c2ccc(Cl)c3cccc1c23 (tested in a mixture with another compound) : > 75 µM

Measured TGI of COc1ccc(C2(CC(C)C)CCNC2)cc1OC (stereo unspecified) : > 100 µM

Measured TGI of N#CC(O)CCOCc1ccccc1 (stereo unspecified) : > 100 µM

Measured TGI of COc1cc2c3c(n(CCCN=[N+]=[N-])c(=O)c2cc1OC)-c1ccc(F)cc1C3=O : > 100 µM

Measured TGI of COc1ccc(O)c(/C=N\Nc2ccccc2)c1 : > 100 µM

Measured TGI of CCOC(=O)c1ccc(N2NC(=O)/C(=C/c3ccc([N+](=O)[O-])o3)C2=O)cc1 : > 73.3 µM

Measured TGI of CC1(O)CC2C(CC1SC1CC3C(CC1(C)O)C3(C)C)C2(C)C (stereo unspecified) : > 100 µM

###

Tested on: SF-295 CNS
assay: NCI tumour cell line growth inhibition, 48 h
measuredQuantity: GI50

Measured GI50 of CCOC(=O)c1c(NN2CCN(CC(F)(F)F)CC2)oc(/C=C2\C=Nc3ncccc32)c1O : 8.47 µM

Measured GI50 of COc1cccc(/C=N\NC(=O)c2ccncc2)c1O : 3.35 µM

Measured GI50 of CCCCN(CCCC)P(=O)(Oc1ccccc1)Oc1ccccc1 : 3.49 µM

Measured GI50 of COc1cc(OC)c(C(=O)/C=C/c2ccc(C#N)cc2)c(OC)c1 : 1.72 µM

Measured GI50 of Cc1ncc(C(=O)Nc2ccc(CN3CCN(C)CC3)c(C(F)(F)F)c2)cc1C#Cc1cnc(N)c2ccc(C#N)cc12 : 0.0545 µM

Measured GI50 of COc1cc2c3c(n(CCCN=[N+]=[N-])c(=O)c2cc1OC)-c1ccccc1C3=O : 2.87 µM

Measured GI50 of COc1cc2c(cc1OC)[C@@H]1C(=O)c3ccc4c(c3O[C@@H]1CO2)C[C@H](C(C)C)O4 : 0.294 µM

Measured GI50 of COc1ccc(Nc2ncc(I)c(NCCCNC(=O)C3CCC3)n2)cc1 : 3.5 µM

Measured GI50 of CC(C)CCN(CCC(C)C)CC(=O)Nc1ccc(S(=O)(=O)c2ccc(NC(=O)CN(CCC(C)C)CCC(C)C)cc2)cc1 : 3.86 µM

###

Tested on: HS 578T breast
assay: NCI tumour cell line growth inhibition, 48 h
measuredQuantity: GI50

GI50 value, target or system HS 578T breast, for CCc1cc2c(c(OCC(F)(F)F)c(C(=O)NC3CCN(C(=O)CO)CC3)n2C)c(=O)n1CC(=O)c1ccccc1 : 34.4 µM

GI50 value, target or system HS 578T breast, for COC(=O)[C@H](Cc1cn(C)cn1)NC(=O)[C@H](CC(C)C)NC(=O)Nc1cc(C(F)(F)F)cc(C(F)(F)F)c1 : > 10 µM

GI50 value, target or system HS 578T breast, for Cc1cccc2c(=O)c3c(sc12)c(NCCCNCCO)nc1ccccc13 : 1.63 µM

GI50 value, target or system HS 578T breast, for CN1CCN(C)C1c1ccc(C2N(C)CCN2C)cc1 : 64 µM

GI50 value, target or system HS 578T breast, for O=Cc1ccc(-c2ccc(-c3nc4ccccc4s3)cc2)o1 : > 100 µM

GI50 value, target or system HS 578T breast, for CC(=O)O[C@@H]1c2c(c3c(=O)c4cccc(O)c4c(=O)c=3c2=[N+]=[N-])[C@H](OC(C)=O)[C@@H](OC(C)=O)[C@]1(C)O : 0.575 µM

GI50 value, target or system HS 578T breast, for COc1ccc(Nc2ncc(I)c(NCCCNC(=O)C3CCC3)n2)cc1 : 2.94 µM

GI50 value, target or system HS 578T breast, for CCn1nc(C2CCN(C(=O)CCO)CC2)nc1-c1cnc(N)c(-c2nnc(C(C)(C)C)o2)n1 : 0.836 µM

GI50 value, target or system HS 578T breast, for O=C1OC2(c3ccc(O)cc3Oc3cc(O)ccc32)c2cccc3cccc1c23 : 22.2 µM

###

Tested on: NCI-H522 lung
assay: NCI tumour cell line growth inhibition, 48 h
Where a SMILES comes first, the peptide text is derived from it. [ ]: non-standard residue; d: D form. The star is where a group is joined. ξ: configuration not given here. ξD = NC(CC(=O)O)C(=O)O; Boc = CC(C)(C)OC(=O)*; Aib = CC(C)(N)C(=O)O; OBn = c1ccc(CO*)cc1
Assign class by TGI: not lower than 10 µM means Met; lower than 10 µM means Not met.

Would you say N#Cc1ccc(C2ON=C(c3ccccc3)N2C23CC4CC(CC(C4)C2)C3)cc1 (stereo unspecified) shows TGI at minimum 10 µM?
Met

Would you say Cc1cccc2c(=O)c3c(sc12)c(NCCCNCCO)nc1ccccc13 shows TGI at minimum 10 µM?
Not met

Would you say CCOC(=O)C1=C(C(=O)OCC)SC2(S1)C(C(=O)OCC)=C(C(=O)OCC)Sc1c2ssc1=O shows TGI at minimum 10 µM?
Not met

Would you say O=C1c2ccccc2CC12Cc1cc3c(cc1C2)CCC3 shows TGI at minimum 10 µM?
Met

Would you say Cc1cc(C)c(/C=C2\C(=O)Nc3ccccc32)[nH]1 shows TGI at minimum 10 µM?
Met

Would you say COc1cc2c3c(n(CCCN=[N+]=[N-])c(=O)c2cc1OC)-c1ccc([N+](=O)[O-])cc1C3=O shows TGI at minimum 10 µM?
Met

Would you say O=C1c2cc3c(cc2CC12Cc1ccccc1C2)CCC3 shows TGI at minimum 10 µM?
Met

Would you say O=S(=O)(CC(Cl)c1ccccc1)c1nc2ccccc2s1 (stereo unspecified) shows TGI at minimum 10 µM?
Not met

Would you say CC(C)(C)OC(=O)NC(CC(=O)OCc1ccccc1)C(=O)NC(C)(C)C(N)=O (stereo unspecified) (Boc-[ξD](OBn)-[Aib]-NH2) shows TGI at minimum 10 µM?
Met

Would you say COc1ccc(Sc2[nH]c(C=O)c3ccccc23)cc1 shows TGI at minimum 10 µM?
Met

Would you say O=C(CSCC(=O)N/N=C\c1ccc(F)cc1F)N/N=C\c1ccc(F)cc1F shows TGI at minimum 10 µM?
Met

Would you say O=Cc1ccc(-c2ccc(-c3nc4ccccc4s3)cc2)o1 shows TGI at minimum 10 µM?
Met

Would you say CCNCC(=O)Nc1ccc2c(c1)C(=O)c1ccc(NC(=O)CNCC)cc1C2=O shows TGI at minimum 10 µM?
Not met

Would you say CCCCCCCCCCC/C=C(/C(=O)CCCO[Si](C)(C)C(C)(C)C)C(=O)OC shows TGI at minimum 10 µM?
Met

Would you say Cc1ccc(C(=O)NC2CCCCC2)cc1N=NN(C)C shows TGI at minimum 10 µM?
Met

Would you say COc1ccc(C)c2sc(N(Cc3cccnc3)C(=O)c3ccc(C#N)cc3)nc12 shows TGI at minimum 10 µM?
Met

Would you say COC(=O)c1c(O)ccc2c1c1c(n2CCc2ccc(OC)c(OC)c2)C(=O)c2ccccc2C1=O shows TGI at minimum 10 µM?
Met

Would you say O=C1N[C@H]2C(=O)c3c(Br)sc(Br)c3[C@H]2O1 shows TGI at minimum 10 µM?
Not met

Would you say O=C(NCCCCCCCCNC(=O)Nc1cccc2ccccc12)Nc1cccc2ccccc12 shows TGI at minimum 10 µM?
Met

Would you say CC1(C)CN(CC(=O)O)CC(Cc2ccc(OCC(=O)O)cc2)N(CC(=O)O)CC(C)(C)SS1 (stereo unspecified) shows TGI at minimum 10 µM?
Met

Would you say C=CCCn1nc(-c2ccccc2)oc1=O shows TGI at minimum 10 µM?
Met

Every entry's value here was drawn from PubChem BioAssay (NCI).
